experiment: ATG_NRF2_ARE_CIS: Attagene CIS-FACTORIAL HepG2 Assay for human Nuclear Factor Erythroid 2 Related Factor 2 (NFR2) response to Antioxidant Response Elements (ARE) (AID 2282992); settings: HepG2 Attagene ARE/NRF2 reporter, transcription factor activity; actives raise or lower the signal
Calls of active or inactive are those of the source. The calls were made as follows: active = hit-call score of the fitted dose curve at least 0.9, where 1 is the maximum; inactive = score below 0.9.
Outcome codes: active, inactive

[
  {
    "chemical_smiles": "CCO[Si](CCC(F)(F)C(F)(F)C(F)(F)C(F)(F)C(F)(F)C(F)(F)F)(OCC)OCC",
    "qualitative_label": "inactive"
  },
  {
    "chemical_smiles": "CN(C)Cc1ccccc1O",
    "qualitative_label": "inactive"
  },
  {
    "chemical_smiles": "N=C(N)C(F)(F)C(F)(F)C(F)(F)C(F)(F)C(F)(F)C(F)(F)C(F)(F)F",
    "qualitative_label": "active"
  },
  {
    "chemical_smiles": "[Co]",
    "qualitative_label": "inactive"
  },
  {
    "chemical_smiles": "O=C(OCCOCCOCCOC(=O)c1ccccc1)c1ccccc1",
    "qualitative_label": "inactive"
  },
  {
    "chemical_smiles": "OCC(F)(F)C(F)(F)C(F)(F)C(F)F",
    "qualitative_label": "inactive"
  },
  {
    "chemical_smiles": "CCCCCCCCC(F)(F)C(F)(F)C(F)(F)C(F)(F)C(F)(F)C(F)(F)F",
    "qualitative_label": "inactive"
  },
  {
    "chemical_smiles": "Cc1ccc(S(=O)(=O)NCl)cc1",
    "qualitative_label": "inactive"
  }
]
